molecular target: Cytochrome P450 3A4 (Homo sapiens); experiment: Cytochrome P450 Family 3 Subfamily A Member 4 (CYP3A4) small molecule antagonists: luciferase reporter qHTS assay (AID 1671201); conditions: P450-Glo CYP3A4 enzyme, luciferin luminescence, 1 h; series mostly up to 115 µM; also: nearly all actives have a fitted effect of over 50% in size
Results filed as inconclusive are left out. Activity calls are given as the source filed them. Calls follow the shape of the dose curve; as a rule, active = well fitted inhibition curve with a large enough effect in the repeat runs; inconclusive = weak or mixed curves; inactive = no such curve, though single readings can be large or run the other way.
Outcome codes: 1.0 for active, 0.0 for inactive

INSERT INTO results (molecule, assay_target, discrete_label) VALUES
  ('[N-]=[N+]=CC(=O)OC[C@H](N)C(=O)O', 'Cytochrome P450 3A4 (Homo sapiens)', 0.0),
  ('CN(C)C(=O)C(c1ccccc1)c1ccccc1', 'Cytochrome P450 3A4 (Homo sapiens)', 0.0),
  ('CSc1nnc(C(C)(C)C)c(=O)n1N', 'Cytochrome P450 3A4 (Homo sapiens)', 0.0),
  ('CCCCCCCCCCCCCCCCCC(=O)O', 'Cytochrome P450 3A4 (Homo sapiens)', 0.0),
  ('Nc1cccc(Cl)c1', 'Cytochrome P450 3A4 (Homo sapiens)', 0.0),
  ('CC(=O)C1CCOC1=O (stereo not given)', 'Cytochrome P450 3A4 (Homo sapiens)', 0.0),
  ('CCCOC(=O)c1ccccc1C(=O)OCCC', 'Cytochrome P450 3A4 (Homo sapiens)', 0.0),
  ('Cc1ccc(N)cc1', 'Cytochrome P450 3A4 (Homo sapiens)', 0.0),
  ('CNc1cnn(-c2cccc(C(F)(F)F)c2)c(=O)c1Cl', 'Cytochrome P450 3A4 (Homo sapiens)', 1.0),
  ('CN(C)C(=O)Cl', 'Cytochrome P450 3A4 (Homo sapiens)', 0.0),
  ('ClCCOCCCl', 'Cytochrome P450 3A4 (Homo sapiens)', 0.0),
  ('Cl[C@H]1OCCO[C@@H]1Cl', 'Cytochrome P450 3A4 (Homo sapiens)', 0.0),
  ('COC(C)(C)CCCC(C)C/C=C/C(C)=C/C(=O)OC(C)C (stereo not given)', 'Cytochrome P450 3A4 (Homo sapiens)', 0.0),
  ('CNC(=O)O/N=C/C(C)(C)SC', 'Cytochrome P450 3A4 (Homo sapiens)', 0.0),
  ('C/C=C/c1ccc2c(c1)OCO2', 'Cytochrome P450 3A4 (Homo sapiens)', 0.0);

* * *

assay: qHTS assay to identify small molecule agonists of the farnesoid-X-receptor (FXR) signaling pathway - cell viability counter screen (AID 743218); conditions: FXR-bla HEK293T viability, CellTiter-Glo luminescence, 16 h; series mostly up to 62.6 µM; also: nearly all actives have a fitted effect of over 45% in size
Inconclusive results are not listed. Calls of active or inactive are those of the source. Calls follow the shape of the dose curve; as a rule, active = well fitted cell-killing curve with a large enough effect in the repeat runs; inconclusive = weak or mixed curves, or effect the other way; inactive = no such curve, though single readings can be large or run the other way.
Quantity Kind: outcome

INSERT INTO measurements (compound, result_value) VALUES
  ('O=C(O)C(Br)Br', 'inactive'),
  ('O=C(O)Cc1ccccc1', 'inactive'),
  ('OC[C@@H](O)[C@H]1O[C@@H]2O[C@H](C(Cl)(Cl)Cl)O[C@@H]2[C@H]1O', 'inactive'),
  ('Cc1cc(O)ccc1Cl', 'inactive'),
  ('COP(=S)(OC)SCN1C(=O)c2ccccc2C1=O', 'inactive'),
  ('N#Cc1cccc(C#N)c1', 'inactive'),
  ('CCOc1ccc(N)cc1', 'inactive'),
  ('COC(C)(C)CCCC(C)C/C=C/C(C)=C/C(=O)OC(C)C (stereo unspecified)', 'inactive'),
  ('COc1cc(-c2ccc(N)c(OC)c2)ccc1N', 'inactive'),
  ('Sc1ccccc1', 'inactive'),
  ('CCCCCCCCCCCCCCCCCC(=O)O', 'inactive'),
  ('Cl/C=C/Cl', 'inactive'),
  ('O=C(O)COc1ccccc1', 'inactive'),
  ('COC(=O)Nc1cccc(OC(=O)Nc2cccc(C)c2)c1', 'inactive'),
  ('OCC(O)CCl (stereo unspecified)', 'inactive'),
  ('ClCCOCCCl', 'inactive');
